Experiment: Terminal plasma concentration in BALB/c mouse at 1.5 mg/kg, po after 8 hrs
Type: ADME, organism-based
Set-up: dose 1.5 mg/kg, route oral
Settings: read-out: Cp(T)

- Compound Structure String: "C[C@H](NCc1ccc2c(c1)[nH]/c(=N\\C(=O)c1ccc(-c3cn[nH]c3)s1)n2CC(C)(C)O)C(C)(C)C"
  concentration at 8 h (µM): 0.1

* * *

Assay: Cmax in Sprague-Dawley rat at 10 mg/kg, po
Format: ADME, organism-based
Set-up: dose 10 mg/kg, route oral
Conditions: in vivo

- Compound Structure String: "C[C@H](NCc1ccc2c(c1)[nH]/c(=N\\C(=O)c1ccc(-c3cn[nH]c3)s1)n2CC(C)(C)O)C(C)(C)C"
  Cmax: "92 ng/mL"

* * *

Molecular target: Insulin receptor (Homo sapiens, UniProt P06213)
Sequence (P06213 28-758 limits assumed): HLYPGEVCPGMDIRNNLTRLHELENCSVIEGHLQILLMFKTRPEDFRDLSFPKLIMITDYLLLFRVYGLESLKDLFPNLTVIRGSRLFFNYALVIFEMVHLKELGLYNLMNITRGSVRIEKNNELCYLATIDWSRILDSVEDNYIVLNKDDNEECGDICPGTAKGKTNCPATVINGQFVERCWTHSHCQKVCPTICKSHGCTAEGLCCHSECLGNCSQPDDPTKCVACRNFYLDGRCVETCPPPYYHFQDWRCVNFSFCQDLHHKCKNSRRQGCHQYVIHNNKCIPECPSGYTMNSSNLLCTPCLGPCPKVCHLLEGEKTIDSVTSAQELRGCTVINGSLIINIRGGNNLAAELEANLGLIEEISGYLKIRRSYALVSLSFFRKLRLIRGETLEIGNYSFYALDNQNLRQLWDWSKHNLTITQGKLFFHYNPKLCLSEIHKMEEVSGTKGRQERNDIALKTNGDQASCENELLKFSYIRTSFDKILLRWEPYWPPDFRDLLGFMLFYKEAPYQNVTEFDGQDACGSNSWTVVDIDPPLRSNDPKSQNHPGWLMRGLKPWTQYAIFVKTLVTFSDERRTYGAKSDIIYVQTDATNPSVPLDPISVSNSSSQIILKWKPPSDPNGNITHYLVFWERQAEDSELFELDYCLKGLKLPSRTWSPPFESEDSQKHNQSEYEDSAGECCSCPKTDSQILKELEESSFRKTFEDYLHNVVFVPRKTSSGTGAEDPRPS
Sequence (P06213 763-1382 limits assumed): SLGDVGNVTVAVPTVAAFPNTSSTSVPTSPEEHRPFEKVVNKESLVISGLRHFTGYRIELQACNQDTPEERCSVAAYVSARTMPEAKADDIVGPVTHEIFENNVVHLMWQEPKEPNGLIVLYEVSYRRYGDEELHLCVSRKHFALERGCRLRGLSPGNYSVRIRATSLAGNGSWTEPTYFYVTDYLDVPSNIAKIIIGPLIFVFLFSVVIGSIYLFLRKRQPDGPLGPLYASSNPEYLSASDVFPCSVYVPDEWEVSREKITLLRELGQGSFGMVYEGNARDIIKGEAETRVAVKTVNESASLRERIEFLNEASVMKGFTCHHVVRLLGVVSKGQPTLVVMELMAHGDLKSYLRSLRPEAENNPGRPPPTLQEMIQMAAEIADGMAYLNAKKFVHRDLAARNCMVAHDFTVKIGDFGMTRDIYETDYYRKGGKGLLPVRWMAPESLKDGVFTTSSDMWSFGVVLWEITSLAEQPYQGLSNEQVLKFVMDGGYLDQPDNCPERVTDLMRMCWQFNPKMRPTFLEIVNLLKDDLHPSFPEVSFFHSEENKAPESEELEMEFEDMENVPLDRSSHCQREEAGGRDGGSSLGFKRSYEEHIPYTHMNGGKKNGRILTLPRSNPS
Rule: IC50 below 400 nM gives rule met. Equal to or above 400 nM gives rule not met.

- Compound: "CC(C)(O)Cn1/c(=N/C(=O)c2ccc(-c3cn[nH]c3)s2)[nH]c2cc(CN3CCCCC3CO)ccc21 (centres undefined)"
  Assigned Label: "rule not met"
- Compound: "CC(C)(O)Cn1c(NC(=O)c2ccc(-c3cn[nH]c3)s2)nc2cc(CNc3ccccc3)ccc21"
  Assigned Label: "rule not met"
- Compound: "Cc1ncc(-c2ccc(C(=O)/N=c3\\[nH]c4cc(CN(C)C5CCCCC5)ccc4n3CC(C)(C)O)s2)o1"
  Assigned Label: "rule met"
- Compound: "Cc1ncc(-c2ccc(C(=O)Nc3nc4cc(N(C)C(=O)c5ccccc5)ccc4n3CC(C)(C)O)s2)o1"
  Assigned Label: "rule not met"
- Compound: "CC1COCC(C)N1Cc1ccc2c(c1)[nH]/c(=N\\C(=O)c1ccc(-c3cn[nH]c3)s1)n2CC(C)(C)O (centres undefined)"
  Assigned Label: "rule met"
- Compound: "C[C@H](NCc1ccc2c(c1)[nH]/c(=N\\C(=O)c1ccc(-c3cn[nH]c3)s1)n2CC(C)(C)O)C(C)(C)C"
  Assigned Label: "rule met"

* * *

Target: Tyrosine-protein kinase ITK/TSK (Homo sapiens, UniProt Q08881)
Sequence (Q08881 whole entry): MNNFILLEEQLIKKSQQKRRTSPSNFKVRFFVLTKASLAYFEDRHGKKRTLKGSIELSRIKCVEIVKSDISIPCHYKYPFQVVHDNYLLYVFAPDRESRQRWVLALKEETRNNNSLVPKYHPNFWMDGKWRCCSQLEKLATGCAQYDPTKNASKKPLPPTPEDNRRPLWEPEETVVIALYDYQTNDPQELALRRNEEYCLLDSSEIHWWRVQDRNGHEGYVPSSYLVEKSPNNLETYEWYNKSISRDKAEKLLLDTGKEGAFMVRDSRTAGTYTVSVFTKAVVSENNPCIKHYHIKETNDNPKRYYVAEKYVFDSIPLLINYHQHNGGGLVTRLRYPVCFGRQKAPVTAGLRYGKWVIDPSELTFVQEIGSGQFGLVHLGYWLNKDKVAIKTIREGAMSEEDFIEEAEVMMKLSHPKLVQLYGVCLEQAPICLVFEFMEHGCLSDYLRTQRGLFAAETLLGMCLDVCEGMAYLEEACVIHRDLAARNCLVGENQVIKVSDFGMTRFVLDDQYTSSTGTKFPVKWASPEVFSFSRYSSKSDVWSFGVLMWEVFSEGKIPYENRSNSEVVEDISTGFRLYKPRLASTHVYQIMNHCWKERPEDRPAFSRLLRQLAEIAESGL
Assay: Antagonist activity at human ITK expressed in BTK deficient DT40 cells assessed as inhibition of B cell receptor-stimulated calcium influx
Type: functional, cell-based
Grouping by measured IC50 is done with the following cut points: lower band (below 4 nM), central band (4 nM to below 20 nM), upper band (20 nM or more)

- Compound: "C[C@@H](NCc1ccc2c(c1)nc(NC(=O)c1ccc(-c3cn[nH]c3)s1)n2CC(C)(C)O)C(C)(C)C"
  Assay System: "Tyrosine-protein kinase ITK/TSK (Homo sapiens, UniProt Q08881)"
  Assigned Label: "lower band"
- Compound: "C[C@H](N(C)Cc1ccc2c(c1)[nH]/c(=N\\C(=O)c1ccc(-c3cn[nH]c3)s1)n2CC(C)(C)O)C(C)(C)C"
  Assay System: "Tyrosine-protein kinase ITK/TSK (Homo sapiens, UniProt Q08881)"
  Assigned Label: "lower band"
- Compound: "CC(C)(O)Cn1/c(=N/C(=O)c2ccc(-c3cn[nH]c3)s2)[nH]c2cc(CN3CCC(O)C3)ccc21 (stereo unspecified)"
  Assay System: "Tyrosine-protein kinase ITK/TSK (Homo sapiens, UniProt Q08881)"
  Assigned Label: "upper band"
- Compound: "CC(C)(O)Cn1c(NC(=O)c2ccc(-c3cn[nH]c3)s2)nc2cc(CN)ccc21"
  Assay System: "Tyrosine-protein kinase ITK/TSK (Homo sapiens, UniProt Q08881)"
  Assigned Label: "upper band"
- Compound: "CC(C)(O)Cn1/c(=N/C(=O)c2ccc(-c3cn[nH]c3)s2)[nH]c2cc(CN3CCOCC3)ccc21"
  Assay System: "Tyrosine-protein kinase ITK/TSK (Homo sapiens, UniProt Q08881)"
  Assigned Label: "central band"
- Compound: "CC(C)(O)Cn1c(NC(=O)c2ccc(-c3cn[nH]c3)s2)nc2cc(CNc3ccccc3)ccc21"
  Assay System: "Tyrosine-protein kinase ITK/TSK (Homo sapiens, UniProt Q08881)"
  Assigned Label: "upper band"
- Compound: "Cc1ncc(-c2ccc(C(=O)Nc3nc4cc(N(C)C(=O)c5ccccc5)ccc4n3CC(C)(C)O)s2)o1"
  Assay System: "Tyrosine-protein kinase ITK/TSK (Homo sapiens, UniProt Q08881)"
  Assigned Label: "upper band"
- Compound: "CN(Cc1ccc2c(c1)nc(NC(=O)c1ccc(-c3cn[nH]c3)s1)n2CC(C)(C)O)C1CCCCC1"
  Assay System: "Tyrosine-protein kinase ITK/TSK (Homo sapiens, UniProt Q08881)"
  Assigned Label: "central band"
- Compound: "Cc1ncc(-c2ccc(C(=O)Nc3nc4cc(CNC5CCCCC5)ccc4n3CC(C)(C)O)s2)o1"
  Assay System: "Tyrosine-protein kinase ITK/TSK (Homo sapiens, UniProt Q08881)"
  Assigned Label: "upper band"
- Compound: "CC(C)(O)Cn1/c(=N/C(=O)c2ccc(-c3cn[nH]c3)s2)[nH]c2cc(CN3CCCCC3CO)ccc21 (stereo unspecified)"
  Assay System: "Tyrosine-protein kinase ITK/TSK (Homo sapiens, UniProt Q08881)"
  Assigned Label: "upper band"
- Compound: "CC1COCC(C)N1Cc1ccc2c(c1)[nH]/c(=N\\C(=O)c1ccc(-c3cn[nH]c3)s1)n2CC(C)(C)O (stereo unspecified)"
  Assay System: "Tyrosine-protein kinase ITK/TSK (Homo sapiens, UniProt Q08881)"
  Assigned Label: "lower band"
- Compound: "C[C@@H](N(C)Cc1ccc2c(c1)nc(NC(=O)c1ccc(-c3cn[nH]c3)s1)n2CC(C)(C)O)C(C)(C)C"
  Assay System: "Tyrosine-protein kinase ITK/TSK (Homo sapiens, UniProt Q08881)"
  Assigned Label: "lower band"
- Compound: "CCC(C)NCc1ccc2c(c1)nc(NC(=O)c1ccc(-c3cn[nH]c3)s1)n2CC(C)(C)O (stereo unspecified)"
  Assay System: "Tyrosine-protein kinase ITK/TSK (Homo sapiens, UniProt Q08881)"
  Assigned Label: "upper band"
- Compound: "CC(C)(O)Cn1/c(=N/C(=O)c2ccc(-c3cn[nH]c3)s2)[nH]c2cc(CN3CCCCC3)ccc21"
  Assay System: "Tyrosine-protein kinase ITK/TSK (Homo sapiens, UniProt Q08881)"
  Assigned Label: "central band"

* * *

Assay: AUC (0 to infinity) in Sprague-Dawley rat at 10 mg/kg, po
Format: ADME, organism-based
Design: time infinity, dose 10 mg/kg, route oral
Conditions: plasma

- Compound Structure String: "C[C@H](NCc1ccc2c(c1)[nH]/c(=N\\C(=O)c1ccc(-c3cn[nH]c3)s1)n2CC(C)(C)O)C(C)(C)C"
  AUC(0-inf) / ng·h/mL: 659

* * *

Experiment: Oral bioavailability in Sprague-Dawley rat at 10 mg/kg
Assay type: ADME, organism-based
Details: in vivo
Endpoint: bioavailability

- Compound Structure String: "C[C@H](NCc1ccc2c(c1)[nH]/c(=N\\C(=O)c1ccc(-c3cn[nH]c3)s1)n2CC(C)(C)O)C(C)(C)C"
  Observed Measurement: "21%"

* * *

Experiment: Plasma clearance in Sprague-Dawley rat at 1 mg/kg, iv
Type: ADME, organism-based
Set-up: dose 1 mg/kg, route intravenous
Endpoint: clearance (mL/min/kg)

- Compound Structure String: "C[C@H](NCc1ccc2c(c1)[nH]/c(=N\\C(=O)c1ccc(-c3cn[nH]c3)s1)n2CC(C)(C)O)C(C)(C)C"
  Endpoint: "clearance"
  Observed Measurement: 53.1

* * *

Test: Terminal plasma concentration in BALB/c mouse at 5 mg/kg, po after 8 hrs
Format: ADME, organism-based
Parameters: dose 5 mg/kg, route oral
Details: read-out: Cp(T)

- Compound Structure String: "C[C@H](NCc1ccc2c(c1)[nH]/c(=N\\C(=O)c1ccc(-c3cn[nH]c3)s1)n2CC(C)(C)O)C(C)(C)C"
  Value Unit: "nM"
  concentration at 8 h: 400

These entries and their values trace back to ChEMBL document CHEMBL1153328.
